ASSAYED TARGET: Calpain-2 catalytic subunit (Homo sapiens, UniProt P17655)
Sequence (P17655 whole entry): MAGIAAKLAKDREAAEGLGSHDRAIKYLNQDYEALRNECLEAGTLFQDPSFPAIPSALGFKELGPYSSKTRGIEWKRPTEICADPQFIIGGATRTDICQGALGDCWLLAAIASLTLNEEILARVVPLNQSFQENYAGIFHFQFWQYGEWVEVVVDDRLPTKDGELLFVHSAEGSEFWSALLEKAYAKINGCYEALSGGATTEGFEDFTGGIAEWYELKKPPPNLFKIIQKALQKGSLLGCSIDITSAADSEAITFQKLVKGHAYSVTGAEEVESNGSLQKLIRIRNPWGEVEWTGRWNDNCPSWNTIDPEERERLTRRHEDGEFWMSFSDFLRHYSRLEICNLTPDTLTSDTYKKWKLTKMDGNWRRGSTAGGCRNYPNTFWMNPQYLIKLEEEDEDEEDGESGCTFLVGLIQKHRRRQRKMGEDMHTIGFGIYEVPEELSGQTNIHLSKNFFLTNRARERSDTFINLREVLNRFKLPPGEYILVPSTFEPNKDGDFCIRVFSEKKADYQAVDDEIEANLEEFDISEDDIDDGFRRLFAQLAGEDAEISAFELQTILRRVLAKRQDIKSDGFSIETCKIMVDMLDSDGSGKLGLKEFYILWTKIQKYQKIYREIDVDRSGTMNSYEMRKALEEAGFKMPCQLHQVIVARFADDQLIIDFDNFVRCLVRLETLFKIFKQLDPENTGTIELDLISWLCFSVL
PROTOCOL DESCRIPTION: Inhibition of calpain-2 (unknown origin)
Form field: pKi (one value per entry).
Note on units: pKi is unitless, being -log10 of a concentration expressed in mol/L.

                       smiles_record                            assayed_target  reported_metric  observed
0  O=C(O)/C(S)=C/c1c[nH]c2ccc(F)cc12  Calpain-2 catalytic subunit (Homo sapiens, UniProt P17655)              pKi      5.27

Value lookup for pKi; key = O=C(O)/C(S)=C/c1ccc(I)cc1
6.43

Cited source: ChEMBL document CHEMBL3217751
